- SYSTEM_NAME: dCTP pyrophosphatase 1 (Homo sapiens, UniProt Q9H773)
- Sequence (Q9H773 whole entry): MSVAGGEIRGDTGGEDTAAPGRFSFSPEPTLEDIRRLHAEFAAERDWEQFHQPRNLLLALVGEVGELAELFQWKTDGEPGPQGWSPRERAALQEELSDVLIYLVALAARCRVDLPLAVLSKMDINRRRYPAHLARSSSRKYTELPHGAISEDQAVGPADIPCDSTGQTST
- ASSAY_COMMENT: Inhibition of recombinant human N-terminal His-tagged dCTPase 1 expressed in Escherichia coli BL21(DE3)pLysS using dCTP as substrate after 1 hr by malachite green reagent based assay
pIC50: −log10 of the molar value.
MEASURED_ATTRIBUTE: pIC50

INSERT INTO assay_data (smiles_repr, reported) VALUES
  ('C=CCOc1ccc(-c2nn3c(-c4ccccn4)nnc3s2)cc1', 5.92);

I = c1ccc(CCCCc2nn3c(-c4ccccn4)nnc3s2)cc1
II = CCCc1nnc2sc(-c3cccc(OC)c3)nn12
III = CCOc1ccc(-c2nn3c(-c4ccccn4)nnc3s2)cc1
IV = Clc1ccc(-c2nn3c(-c4ccccn4)nnc3s2)cc1
V = COc1ccc(-c2nn3c(-c4cccnc4)nnc3s2)cc1
[in] Sequence the entries by pIC50, beginning with the highest number. Write the labels in rank order as requested.
[out] IV, III, I, V, II
(IV: 6.69, III: 6.35, I: 5.86, V: 5.58, II: 5.13)

* * *

- ASSAY_COMMENT: Metabolic stability in human plasma after 4 hrs
- Type: ADME, cell-free
- CONDITION: read-out: Stability
MEASURED_ATTRIBUTE: remaining at 4 h (%)
State the answer as a number, implicitly in %.

[in] remaining at 4 h for COc1ccc(-c2nn3c(-c4ccccn4)nnc3s2)cc1OC ?
[out] 100

* * *

- ASSAY_COMMENT: Fraction unbound in human plasma
- Assay type: ADME, cell-free
MEASURED_ATTRIBUTE: fraction unbound
Give the value as a plain number.

[in] Entry COc1ccc(-c2nn3c(-c4ccccn4)nnc3s2)cc1OC has what fraction unbound?
[out] 0.063

* * *

- SYSTEM_NAME: dCTP pyrophosphatase 1 (Homo sapiens, UniProt Q9H773)
- ASSAY_COMMENT: Inhibition of recombinant human N-terminal His-tagged dCTPase 1 expressed in Escherichia coli BL21(DE3)pLysS using dCTP as substrate after 1 hr by malachite green reagent based assay
MEASURED_ATTRIBUTE: IC50

INSERT INTO results (smiles_repr, system_name, reported) VALUES
  ('COc1cccc(-c2nn3c(-c4ccncc4)nnc3s2)c1', 'dCTP pyrophosphatase 1 (Homo sapiens, UniProt Q9H773)', '> 10 µM');

[in] Lab note: need IC50 for COc1ccc(-c2nn3c(-c4ccccn4)nnc3s2)cc1 on dCTP pyrophosphatase 1 (Homo sapiens, UniProt Q9H773), anyone have it?
[out] 0.282 to 0.316 µM

[in] Look up IC50 with dCTP pyrophosphatase 1 (Homo sapiens, UniProt Q9H773) for this molecule: CCc1cc(-c2nnc3sc(-c4ccccc4)nn23)n(C)n1
[out] > 10 µM

Numbers sourced from ChEMBL document CHEMBL4007403.
